experiment: Plasma concentration in Sprague-Dawley rat at 50 mg/kg, po after 3 hrs by LC-MS/MS analysis; assay type: ADME, organism-based
EXPERIMENTAL_READOUT: concentration at 3 h (ng/mL)
# output: bare number, implied unit ng/mL

Field concentration at 3 h (entry "COc1cc(OCc2ccccn2)ccc1/C=C/c1cc(/C=C/c2ccc3cc[nH]c3c2)[nH]n1" ) reads 466

###

assay: Cmax in Sprague-Dawley rat at 50 mg/kg, po after 30 mins by LC-MS/MS analysis; type: ADME, organism-based; parameters: dose 50 mg/kg, route oral; details: in vivo
EXPERIMENTAL_READOUT: Cmax (ng/mL)
# output: bare number, implied unit ng/mL

Field Cmax (entry "COc1cc(OCc2ccccn2)ccc1/C=C/C(=O)CC(=O)/C=C/c1ccc2cc[nH]c2c1" ) reads 5.7
